tested on: soybean; experiment: Test A preemergence; format: in vivo, Glycine max; details: 500 g ai/ha, 0 to 100 scale (0 no effect, 100 complete control), 10 days
// NB: equality with 40 counts as FALSE; only Plant response rating, Soybean strictly below is TRUE

Reference set, count: 6
Cc1cccc2c1O[C@@H](C)CN2C(=O)c1cccc(-n2ncnc2C(C)C)c1 | TRUE
C[C@H]1CN(C(=O)c2cccc(-n3cncn3)c2)c2cccc(OC(F)(F)F)c2O1 | TRUE
CC1CN(C(=O)c2cccc(-n3cncn3)c2)c2cc(F)cc(F)c2O1 (centres unmarked) | FALSE
Cc1cccc2c1O[C@@H](C)CN2C(=O)c1cc(-n2cncn2)ccc1Cl | FALSE
C[C@H]1CN(C(=O)c2cccc(-n3cncn3)c2)c2cccc(C#N)c2O1 | FALSE
CCCc1ncn(-c2cccc(C(=O)N3C[C@H](C)Oc4c(C)cccc43)c2)n1 | FALSE

# input for lookup
Prompt: Is the reported Plant response rating, Soybean for `Cc1ccc(-n2cnc(C3CCC3)n2)cc1C(=O)N1C[C@H](C)Oc2c(C)cccc21` strictly below 40?
Completion: FALSE

---

system: barnyardgrass; test: Test C preemergence; assay type: in vivo, Echinochloa crusgalli; details: Preemergence, 1000 g ai/ha; visual rating after 10 days, 0 to 100 scale (0 no effect, 100 complete control)
In this section, each of the compounds is paired with its reported Plant response rating, Barnyardgrass.
// keep it numeric: no unit symbol after the value

C[C@H]1CN(C(=O)c2cccc(-c3ccncn3)c2)c2cccc(Cl)c2O1 | 60

Prompt: Could you tell me which Plant response rating, Barnyardgrass is on file for `C[C@H]1CN(C(=O)c2cccc(-c3cncc(Cl)c3)c2)c2cccc(Cl)c2O1` ?
Completion: 0

Prompt: Could you tell me which Plant response rating, Barnyardgrass is on file for `Cc1cc(-c2cccc(C(=O)N3C[C@H](C)Oc4c(C)cccc43)c2)cnn1` ?
Completion: 0

Prompt: Could you tell me which Plant response rating, Barnyardgrass is on file for `Cc1ccc(-c2cccc(C(=O)N3C[C@H](C)Oc4c(C)cccc43)c2)cn1` ?
Completion: 0

Prompt: Could you tell me which Plant response rating, Barnyardgrass is on file for `Cc1cnc(-c2cccc(C(=O)N3C[C@H](C)Oc4c(C)cccc43)c2)s1` ?
Completion: 60

Prompt: Could you tell me which Plant response rating, Barnyardgrass is on file for `Cc1ccn(-c2cccc(C(=O)N3C[C@H](C)Oc4c(Cl)cccc43)c2)n1` ?
Completion: 30

Prompt: Could you tell me which Plant response rating, Barnyardgrass is on file for `Cc1ccc(-c2cccc(C(=O)N3C[C@H](C)Oc4c(Cl)cccc43)c2)o1` ?
Completion: 0

Prompt: Could you tell me which Plant response rating, Barnyardgrass is on file for `Cc1cccc2c1O[C@@H](C)CN2C(=O)c1cccc(-n2cncc2Br)c1` ?
Completion: 0

Prompt: Could you tell me which Plant response rating, Barnyardgrass is on file for `Cc1ccc(-c2cccc(C(=O)N3C[C@H](C)Oc4c(C)cccc43)c2)nn1` ?
Completion: 30

Prompt: Could you tell me which Plant response rating, Barnyardgrass is on file for `Cc1ncc(-c2cccc(C(=O)N3C[C@H](C)Oc4c(C)cccc43)c2)cn1` ?
Completion: 50

Prompt: Could you tell me which Plant response rating, Barnyardgrass is on file for `Cc1cccc2c1O[C@@H](C)CN2C(=O)c1cccc(-n2cncc2C#N)c1` ?
Completion: 0

Numbers sourced from patent US20260262643A1.
